Recorded GI50 by entry
# System: NCI-H522 lung
# protocol: NCI tumour cell line growth inhibition, 48 h

Known results for compounds:
O=C1CS/C(=N/S(=O)(=O)c2ccc(N3N=C4c5ccccc5CC4C3c3cccs3)cc2)N1C(=O)c1ccccc1 (centres undefined); 60.1 µM
CCN1CCN(c2cc(C(=O)Nc3cccc(Nc4ccc5c(OC)cccc5n4)c3)cc(C(F)(F)F)c2)CC1; 1.01 µM
COc1cc(S(=O)(=O)Nc2nc(-c3ccc(N4C(=O)C(C)SC4c4ccccc4O)cc3)cs2)ccc1Cl (centres undefined); 53.7 µM

Print NCI-H522 lung GI50 for CC1CCCC(C#N)(NOC2=NCCN2)C1 (centres undefined) . 29 µM

---

# System: K-562 leukemia
# protocol: NCI tumour cell line growth inhibition, 48 h
parameter: TGI (µM)
Respond numerically; units are µM and should not be typed.

O=C1CC(c2cccc(Cl)c2)Oc2ccccc21 (centres undefined); 6.4
Cc1ccc(S(=O)(=O)n2cc([C@@]3(O)C[C@H](CSC#N)OC3=O)c3ccccc32)cc1; 23.6
OCCCCC#Cc1ccccc1C#Cc1cccnc1; 71.1

Supply reported TGI belonging to this molecule: CC(CCc1nc2ccccc2s1)(c1ccc(O)cc1)c1ccc(O)cc1 47.2

---

# System: NCI/ADR-RES ovarian
# protocol: NCI tumour cell line growth inhibition, 48 h
Recorded TGI by entry
Respond numerically; units are µM and should not be typed.

Known results for molecules:
CCCCCCCCCCCNC=O; 96.6
COc1ccc2nc(C)cc(Sc3nc4ccccc4s3)c2c1; 4.42
Nc1nc(Cl)nc2c1ncn2C1OC(CO)C(O)C1F (centres undefined); 4.98
CC12OC(C(=O)C13CC3)C1C(=O)c3c(O)ccc(O)c3C(=O)C12 (centres undefined); 66.8
Cc1ccc(N=C/C=C(\Nc2ccc(C)cc2)c2ccc3ccccc3c2)cc1; 2.16

Supply reported TGI belonging to this molecule: Oc1c(Cl)cc2cc1-c1cc(cc(Cl)c1O)CCc1c(cc(Cl)c(O)c1Cl)-c1cc(Cl)c(c(Cl)c1O)/C=C\2 30.8

Supply reported TGI belonging to this molecule: CC(=O)c1c[nH]c2ccc(-c3ccnc(Nc4ccc(NC(=O)C5CCCC5)c(CN5CCOCC5)c4)n3)cc12 2.96

---

Recorded TGI by entry
# Test system: SNB-75 CNS
# protocol: NCI tumour cell line growth inhibition, 48 h
Respond numerically; units are µM and should not be typed.

CC(C)[P+](c1ccccc1)(c1ccccc1)c1ccccc1; 66
C=C(CN(CC)CC)C1(c2ccccc2)CC2(CCCC2)C(=O)O1 (stereo unspecified); 92.6

Supply reported TGI belonging to this compound: CC/C=C/c1cc2c(cc1O)CCC1C2CC[C@@]2(C)C1CC[C@@H]2O (stereo partly specified) 8.14

Supply reported TGI belonging to this compound: COc1ccc(/C=c2\[nH]c3nc(=O)c(N4CCCCC4)c(N)n3c2=O)cc1 78.7

Supply reported TGI belonging to this compound: O=C1c2ccncc2C(=O)c2c(O)ccc(O)c21 49.1

Supply reported TGI belonging to this compound: COc1cc(/C=C/C(=O)CC(=O)/C=C/c2cc(OC)c(O)c(OC)c2)cc(OC)c1O 61.4

---

Recorded GI50 by entry
# Tested on: A498 renal
# protocol: NCI tumour cell line growth inhibition, 48 h

Known results for compounds:
CC(C)C[C@H](NC(=O)Cn1cccc(CNC(=O)c2ccccc2)c1=O)B(O)O; 0.136 µM
CN(C)CCN1C(=O)c2cccc3c(/C=C/CN4C(=O)c5cccc6cccc(c56)C4=O)ccc(c23)C1=O; 34.1 µM
O=c1cc(-c2ccccc2)[nH]c2c1CCCC2; 1.44 µM
Cc1nc(NS(=O)(=O)c2ccc(NCN3C(=O)c4ccccc4C3=O)cc2)oc1C; > 100 µM
O=C(Nc1ccc(-n2cc(-c3ccncc3)c(-c3ccc(O)c(Cl)c3)n2)cc1)c1ccc(Cl)c(C(F)(F)F)c1; 41.7 µM
Nc1nc(Cl)nc2c1ncn2C1OC(CO)C(O)C1F (centres undefined); 0.284 µM
Fc1ccc2c(c1)C1=C(CCC2)C(c2ccc(Cl)cc2)NC(=S)N1 (centres undefined); 43.6 µM
CC(=O)c1c[nH]c2ccc(-c3ccnc(Nc4ccc(NC(=O)C5CCCC5)c(CN5CCOCC5)c4)n3)cc12; 0.0204 µM

Supply reported GI50 belonging to this compound: CN1CCN(CCCOc2ccc3nc(Nc4ccc(F)c(F)c4)ccc3c2)CC1 1.26 µM

Supply reported GI50 belonging to this compound: COc1cc(OC)c2c(=O)cc(-c3ccccc3OCc3ccccc3)oc2c1OC 9.62 µM

Supply reported GI50 belonging to this compound: CN1CCN(Cc2ccc(NC(=O)c3[nH]ncc3Nc3ncnc4[nH]ccc34)cc2)CC1 0.149 µM

Supply reported GI50 belonging to this compound: COc1ccc2nc(C)cc(Sc3nc4ccccc4s3)c2c1 1.37 µM

Supply reported GI50 belonging to this compound: COc1cc2nc(N3CCC[C@H](NC4=CC(=O)c5ccccc5C4=O)C3)nc(N)c2cc1OC 11.8 µM

Supply reported GI50 belonging to this compound: CCN(CC)CCCNCc1cc(-c2ccccc2)nc2cc(Cl)ccc12 2.36 µM

Supply reported GI50 belonging to this compound: Cc1nn(C)c2ncnc(N/N=C/c3cccc(O)c3O)c12 2.97 µM

Supply reported GI50 belonging to this compound: CN1CCN(C(=O)c2ccc(NC(=O)Nc3ccc(-c4nc(N5CCOCC5)c5cccn5n4)cc3)cc2)CC1 0.0172 µM

Supply reported GI50 belonging to this compound: O=C1NC(=O)C(=Cc2cn(Cc3ccccc3)c3ccccc23)C(=O)N1 0.125 µM

Supply reported GI50 belonging to this compound: O=C(O)Cn1c2c(c3c1-c1ccccc1C3=O)C(=O)CCC2 > 100 µM

Supply reported GI50 belonging to this compound: COc1cc(/C=C/C(=O)CC(=O)/C=C/c2cc(OC)c(O)c(OC)c2)cc(OC)c1O 15.6 µM
